# IC50 per record follows
- target.or.test.system: human TRPC6 (Homo sapiens)
- Sequence (Q9Y210 whole entry): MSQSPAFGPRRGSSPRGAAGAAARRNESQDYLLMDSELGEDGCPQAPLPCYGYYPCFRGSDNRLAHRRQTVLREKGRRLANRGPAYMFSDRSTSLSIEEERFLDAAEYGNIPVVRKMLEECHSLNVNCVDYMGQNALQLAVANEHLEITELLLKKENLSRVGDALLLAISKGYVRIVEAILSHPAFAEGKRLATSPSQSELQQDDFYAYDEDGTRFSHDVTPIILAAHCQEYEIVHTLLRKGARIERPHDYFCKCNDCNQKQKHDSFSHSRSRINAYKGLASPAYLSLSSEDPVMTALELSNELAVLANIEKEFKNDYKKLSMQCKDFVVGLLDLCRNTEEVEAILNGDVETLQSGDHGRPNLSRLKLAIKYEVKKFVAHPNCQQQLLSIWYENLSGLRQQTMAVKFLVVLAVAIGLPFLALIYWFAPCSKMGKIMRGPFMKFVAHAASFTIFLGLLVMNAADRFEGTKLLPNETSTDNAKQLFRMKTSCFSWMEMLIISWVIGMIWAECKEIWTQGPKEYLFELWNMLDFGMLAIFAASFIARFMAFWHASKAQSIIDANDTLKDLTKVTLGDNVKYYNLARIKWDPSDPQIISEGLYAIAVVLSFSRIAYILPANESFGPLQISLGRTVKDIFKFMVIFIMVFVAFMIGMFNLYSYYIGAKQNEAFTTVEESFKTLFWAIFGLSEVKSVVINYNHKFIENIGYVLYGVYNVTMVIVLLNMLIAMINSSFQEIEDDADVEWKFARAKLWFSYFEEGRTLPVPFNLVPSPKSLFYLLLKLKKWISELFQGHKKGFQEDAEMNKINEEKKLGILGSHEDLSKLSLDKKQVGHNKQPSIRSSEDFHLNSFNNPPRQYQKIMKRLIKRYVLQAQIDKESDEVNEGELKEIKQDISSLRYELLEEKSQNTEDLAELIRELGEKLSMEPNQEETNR
- assay.remarks: TRPC6 calcium flux assay (FLIPR, OAG-stimulated calcium influx)
- measurement.conditions: HEK293 cells stably transfected with human TRPC6, read-out: hTRPC6 Potency
- Protocol: Biological Example 1 TRPC6 Calcium Flux Assay Potency of TRPC6 (Transient receptor potential channel family C6) inhibitors were measured by their inhibition of Calcium influx trigged by […] (1-Oleoyl-2-acetyl-sn-glycerol, Millipore Sigma, O6754) stimulation on HEK293 cells stablely transfected with human TRPC6 using a FLIPR tetra system. […]
Answer format: number, then unit.

Sample answers from the record:
- molecule.smiles: "N#Cc1ccc(Cn2c(N3CC[C@@H](O)[C@H](N)C3)nc3ccc(Cl)cc32)nc1"
  val: "67.7 nM"
- molecule.smiles: "CN[C@H]1CCCN(c2nc3ccccc3n2[C@@H](C)c2ccc(C#N)cn2)C1"
  val: "19.4 nM"

*Q* Can you share its IC50? I mean this compound: `N[C@@H]1CN(c2nc3cc(F)c(F)cc3n2Cc2ccc(-n3cncn3)cc2)CC[C@H]1F`
*A* 3.23 nM

*Q* Try this compound next: `CN[C@H]1CCCN(c2nc3ccccc3n2[C@H](C)c2ccc(C#N)cn2)C1`
*A* 101 nM
